Value source: PubChem BioAssay (EPA / NIEHS)

Read-out: Cytochrome P450 4A22 (Homo sapiens) (UniProt Q5TCH4)
test.summary: LTEA_HepaRG_CYP4A22: Life Technologies and Expression Analysis (LTEA) Assay for Cytochrome P450 4A22 (CYP4A22) using HepaRG (AID 2283495)
conditions.used: mRNA level, 48 h; actives raise or lower the signal
Method: LTEA_HepaRG is a cell based, multiplexed-readout assay that uses HepaRG, a human liver cell line, with measurements taken at 48 hours after chemical dosing on a 96-well plate.LTEA_HepaRG_CYP4A22 is one of 102 assay component(s) measured in the LTEA HepaRG cell culture assay. It is a marker of NR mediated metabolism.Data from the assay component LTEA_HepaRG_CYP4A22 was analyzed into 1 endpoint. […]
Calls of active or inactive are those of the source. Rule for the calls: active = hit-call score of the fitted dose curve at least 0.9, where 1 is the maximum; inactive = score below 0.9.
Classes used: active, inactive

- smiles.code: "CC(C)(O)c1ccc(CNC(=O)c2cccnc2Oc2ccc3nonc3c2)cc1"
  label.value: "inactive"
- smiles.code: "C[C@]12CC[C@@H]3c4ccc(O)cc4CC[C@H]3[C@@H]1CC[C@H]2O"
  label.value: "active"
- smiles.code: "CCCCCCCC[Si](OCC)(OCC)OCC"
  label.value: "inactive"
- smiles.code: "CC[C@H](NC(=O)c1cc(F)ccc1NS(=O)(=O)c1cccc2cccnc12)c1ccccc1"
  label.value: "active"
- smiles.code: "CCCCCCCCCCCO"
  label.value: "inactive"
- smiles.code: "O=C=NCCCCCCN=C=O"
  label.value: "inactive"
